Test system: carbapenem-resistant A. baumannii (CRAB) isolates (n = 67)
Experiment: MIC, broth microdilution (EUCAST), carbapenem-resistant A. baumannii isolates
Type: cell-based, Acinetobacter baumannii
Conditions: Acinetobacter baumannii, isolate Ab174; ST 2; ADC-30, OXA-66, OXA-23; ETZ fixed 8 mg/L in combinations
Method: The bacterial strains used in this study comprised 208 clinical isolates from the Spanish National Acinetobacter spp. […] The antimicrobial susceptibility of the 208 Acinetobacter spp. isolates was assessed using the broth microdilution method, as described in the European Committee on Antimicrobial Susceptibility Testing (EUCAST) v.15 guidelines (http://www.eucast.org/clinical_breakpoints). […] MICs for enmetazobactam alone were assessed as well. […]
PARAMETER: MIC (µg/mL)

{"columns": ["COMPOUND", "EXPERIMENTAL RESULT"],
 "data": [
  ["C[n+]1ccn(C[C@@]2(C)[C@H](C(=O)[O-])N3C(=O)C[C@H]3S2(=O)=O)n1", 64],
  ["C[C@@H](O)[C@H]1C(=O)N2C(C(=O)O)=C(SCCN=CN)C[C@H]12", 64],
  ["CO/N=C(\\C(=O)N[C@@H]1C(=O)N2C(C(=O)[O-])=C(C[N+]3(C)CCCC3)CS[C@H]12)c1csc(N)n1 [cefepime]", 32],
  ["CC1(C)[C@H](C(=O)O)N2C(=O)C[C@H]2S1(=O)=O", 16]
]}

----------
System: A. non-baumannii isolates (n = 87)
Experiment: MIC, broth microdilution (EUCAST), A. non-baumannii isolates
Type: cell-based, Acinetobacter spp. (non-baumannii)
Conditions: Acinetobacter lactucae, isolate NO-Ab160, Acinetobacter dijkshoorniae; in combinations ETZ fixed at 8 mg/L; read-out: MIC
Experimental: The bacterial strains used in this study comprised 208 clinical isolates from the Spanish National Acinetobacter spp. […] The antimicrobial susceptibility of the 208 Acinetobacter spp. isolates was assessed using the broth microdilution method, as described in the European Committee on Antimicrobial Susceptibility Testing (EUCAST) v.15 guidelines (http://www.eucast.org/clinical_breakpoints). […] MICs for enmetazobactam alone were assessed as well. […]
# reported MIC; entries follow

{"columns": ["COMPOUND", "MIC / µg/mL"],
 "data": [
  ["C[n+]1ccn(C[C@@]2(C)[C@H](C(=O)[O-])N3C(=O)C[C@H]3S2(=O)=O)n1 [enmetazobactam]", 4],
  ["C[C@@H](O)[C@H]1C(=O)N2C(C(=O)O)=C(SCCN=CN)C[C@H]12 [imipenem]", 0.12],
  ["CC1(C)[C@H](C(=O)O)N2C(=O)C[C@H]2S1(=O)=O [sulbactam]", 0.5],
  ["CO/N=C(\\C(=O)N[C@@H]1C(=O)N2C(C(=O)[O-])=C(C[N+]3(C)CCCC3)CS[C@H]12)c1csc(N)n1 [cefepime]", 0.5]
]}

----------
Molecular target: OXA-23 (Acinetobacter baumannii, UniProt Q9L4P2)
Construct: GST (N); made in house; host or cells: Escherichia coli BL21
Sequence (Q9L4P2 18-273): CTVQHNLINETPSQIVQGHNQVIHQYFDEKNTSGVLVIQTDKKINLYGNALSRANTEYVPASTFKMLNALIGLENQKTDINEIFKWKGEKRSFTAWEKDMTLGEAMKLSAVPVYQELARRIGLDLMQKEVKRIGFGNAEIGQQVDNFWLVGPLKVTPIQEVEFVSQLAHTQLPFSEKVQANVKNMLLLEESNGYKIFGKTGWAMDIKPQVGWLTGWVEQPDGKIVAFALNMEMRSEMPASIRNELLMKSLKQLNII
Assay: OXA-23 inhibition assay (nitrocefin hydrolysis IC50)
Type: biochemical
Conditions: OXA-23; nitrocefin hydrolysis; 10 min preincubation at room temperature; read-out: IC50

{"columns": ["SMILES DATA", "IC50 (µM)"],
 "data": [
  ["CC1=C[C@@H]2CN(C(=O)N2OS(=O)(=O)O)[C@@H]1C(N)=O", 0.17],
  ["C[n+]1ccn(C[C@@]2(C)[C@H](C(=O)[O-])N3C(=O)C[C@H]3S2(=O)=O)n1", 32.4]
]}

----------
Test system: carbapenem-resistant A. baumannii (CRAB) isolates (n = 67)
Test: MIC, broth microdilution (EUCAST), carbapenem-resistant A. baumannii isolates
Assay type: cell-based, Acinetobacter baumannii
Settings: cumulative share of CRAB isolates (n = 67) at MIC 64 mg/L; ETZ fixed 8 mg/L in combinations
MIC distribution 64 for assorted molecules

{"columns": ["MOLECULE", "STUDY SYSTEM", "MIC distribution 64"],
 "data": [
  ["C[n+]1ccn(C[C@@]2(C)[C@H](C(=O)[O-])N3C(=O)C[C@H]3S2(=O)=O)n1", "carbapenem-resistant A. baumannii (CRAB) isolates (n = 67)", 100],
  ["CO/N=C(\\C(=O)N[C@@H]1C(=O)N2C(C(=O)[O-])=C(C[N+]3(C)CCCC3)CS[C@H]12)c1csc(N)n1 [cefepime]", "carbapenem-resistant A. baumannii (CRAB) isolates (n = 67)", 97.0],
  ["CC1(C)[C@H](C(=O)O)N2C(=O)C[C@H]2S1(=O)=O", "carbapenem-resistant A. baumannii (CRAB) isolates (n = 67)", 100],
  ["C[C@@H](O)[C@H]1C(=O)N2C(C(=O)O)=C(SCCN=CN)C[C@H]12", "carbapenem-resistant A. baumannii (CRAB) isolates (n = 67)", 100]
]}

----------
# MIC annotations
Test system: A. non-baumannii isolates (n = 87)
Experiment: MIC, broth microdilution (EUCAST), A. non-baumannii isolates
Format: cell-based, Acinetobacter spp. (non-baumannii)
Conditions: Acinetobacter bereziniae, isolate NO-Ab114, Acinetobacter bereziniae; in combinations ETZ fixed at 8 mg/L; read-out: MIC
Method: The bacterial strains used in this study comprised 208 clinical isolates from the Spanish National Acinetobacter spp. […] The antimicrobial susceptibility of the 208 Acinetobacter spp. isolates was assessed using the broth microdilution method, as described in the European Committee on Antimicrobial Susceptibility Testing (EUCAST) v.15 guidelines (http://www.eucast.org/clinical_breakpoints). […] MICs for enmetazobactam alone were assessed as well. […]

{"columns": ["COMPOUND", "MIC (µg/mL)"],
 "data": [
  ["CC1(C)[C@H](C(=O)O)N2C(=O)C[C@H]2S1(=O)=O", 1],
  ["C[C@@H](O)[C@H]1C(=O)N2C(C(=O)O)=C(SCCN=CN)C[C@H]12", 0.12],
  ["CO/N=C(\\C(=O)N[C@@H]1C(=O)N2C(C(=O)[O-])=C(C[N+]3(C)CCCC3)CS[C@H]12)c1csc(N)n1 [cefepime]", 1],
  ["C[n+]1ccn(C[C@@]2(C)[C@H](C(=O)[O-])N3C(=O)C[C@H]3S2(=O)=O)n1", 1]
]}

----------
System: carbapenem-susceptible A. baumannii isolates (n = 54)
Assay: MIC, broth microdilution (EUCAST), carbapenem-susceptible A. baumannii isolates
Format: cell-based, Acinetobacter baumannii
Conditions: Acinetobacter baumannii, isolate Ab11; ST 239; ADC-2, OXA-51; in combinations ETZ fixed at 8 mg/L

{"columns": ["MOLECULE", "MIC [µg/mL]"],
 "data": [
  ["C[n+]1ccn(C[C@@]2(C)[C@H](C(=O)[O-])N3C(=O)C[C@H]3S2(=O)=O)n1 [enmetazobactam]", 4],
  ["C[C@@H](O)[C@H]1C(=O)N2C(C(=O)O)=C(SCCN=CN)C[C@H]12 [imipenem]", 0.12],
  ["CC1(C)[C@H](C(=O)O)N2C(=O)C[C@H]2S1(=O)=O [sulbactam]", 1],
  ["CO/N=C(\\C(=O)N[C@@H]1C(=O)N2C(C(=O)[O-])=C(C[N+]3(C)CCCC3)CS[C@H]12)c1csc(N)n1 [cefepime]", 2]
]}

----------
System: carbapenem-resistant A. baumannii (CRAB) isolates (n = 67)
Test: MIC, broth microdilution (EUCAST), carbapenem-resistant A. baumannii isolates
Format: cell-based, Acinetobacter baumannii
Details: cumulative share of CRAB isolates (n = 67) at MIC 32 mg/L; ETZ fixed 8 mg/L in combinations
Reported MIC distribution 32 values follow for various molecules
PARAMETER: MIC distribution 32

{"columns": ["MOLECULE", "PARAMETER", "EXPERIMENTAL RESULT"],
 "data": [
  ["CC1(C)[C@H](C(=O)O)N2C(=O)C[C@H]2S1(=O)=O [sulbactam]", "MIC distribution 32", 100],
  ["C[C@@H](O)[C@H]1C(=O)N2C(C(=O)O)=C(SCCN=CN)C[C@H]12 [imipenem]", "MIC distribution 32", 79.1],
  ["C[n+]1ccn(C[C@@]2(C)[C@H](C(=O)[O-])N3C(=O)C[C@H]3S2(=O)=O)n1 [enmetazobactam]", "MIC distribution 32", 41.8],
  ["CO/N=C(\\C(=O)N[C@@H]1C(=O)N2C(C(=O)[O-])=C(C[N+]3(C)CCCC3)CS[C@H]12)c1csc(N)n1 [cefepime]", "MIC distribution 32", 70.1]
]}

----------
# MIC values compiled below
Test system: carbapenem-susceptible A. baumannii isolates (n = 54)
Experiment: MIC, broth microdilution (EUCAST), carbapenem-susceptible A. baumannii isolates
Assay type: cell-based, Acinetobacter baumannii
Conditions: Acinetobacter baumannii, isolate Ab158; ST 2034; ADC-2, OXA-217; in combinations ETZ fixed at 8 mg/L

{"columns": ["COMPOUND", "MODIFIER SIGN", "MIC (µg/mL)"],
 "data": [
  ["C[n+]1ccn(C[C@@]2(C)[C@H](C(=O)[O-])N3C(=O)C[C@H]3S2(=O)=O)n1 [enmetazobactam]", "=", 2],
  ["CO/N=C(\\C(=O)N[C@@H]1C(=O)N2C(C(=O)[O-])=C(C[N+]3(C)CCCC3)CS[C@H]12)c1csc(N)n1 [cefepime]", "=", 0.5],
  ["C[C@@H](O)[C@H]1C(=O)N2C(C(=O)O)=C(SCCN=CN)C[C@H]12 [imipenem]", "≤", 0.06],
  ["CC1(C)[C@H](C(=O)O)N2C(=O)C[C@H]2S1(=O)=O [sulbactam]", "=", 0.5]
]}
